Task for the reader: assign each of the following molecules its reported MIC.
Test system: Escherichia coli
protocol-summary: Antimicrobial activity against Escherichia coli MC4100 harboring a weak promoter in beta-lactamase GES-1 by Etest
Format: functional
Only the number, expressed in µg/mL, is required.

*Q* Quick one: MIC for N[C@@H](C(=O)N[C@@H]1C(=O)N2C(C(=O)O)=C(Cl)CS[C@H]12)c1ccccc1 [CEFACLOR ANHYDROUS] ?
*A* 6

*Q* Reported MIC for CCN1CCN(C(=O)N[C@@H](C(=O)N[C@@H]2C(=O)N3[C@@H]2SC(C)(C)[C@@H]3C(=O)O)c2ccccc2)C(=O)C1=O : what is it?
*A* 2

*Q* Please report the recorded MIC for CO/N=C(\C(=O)N[C@@H]1C(=O)N2C(C(=O)O)=C(COC(N)=O)CS[C@H]12)c1ccco1 .
*A* 8

*Q* Requested field: MIC. Item: CC(C)(O/N=C(\C(=O)N[C@@H]1C(=O)N2C(C(=O)[O-])=C(C[n+]3ccccc3)CS[C@H]12)c1csc(N)n1)C(=O)O
*A* 0.75

*Q* Fill in the blank: the reported MIC of CO/N=C(\C(=O)N[C@@H]1C(=O)N2C(C(=O)[O-])=C(C[N+]3(C)CCCC3)CS[C@H]12)c1csc(N)n1 [CEFEPIME] is ____.
*A* 0.032

*Q* Recorded MIC of C[C@H]1[C@H](NC(=O)/C(=N\OC(C)(C)C(=O)O)c2csc(N)n2)C(=O)N1S(=O)(=O)O , please.
*A* 0.047
